readout.type: logP
Answer as a number with no unit attached.

-- ask // query logP value for entry `COCc1ccc(C#N)cc1`
-- reply 1.23

###

The following molecules are shown together with reported logP values.
measurement.description: method code SF-AS, from Wang, W.; Wang, L.; Tian, L.; Zhang, Z.; Qiu, J. (1987). Partition coefficients of the intermediate of pyrethroid in n-octanol/water system. Huazhong Gongxueyuan Xuebao, 15(1)135-137.
Answer as a number with no unit attached.

[[record]]
molecule = "N#CCc1ccc(Cl)cc1"
readout_type = "logP"
recorded_value = 2.47

[[record]]
molecule = "CC(C)C(C#N)c1ccc(Cl)cc1 (centres undefined)"
readout_type = "logP"
recorded_value = 3.41

[[record]]
molecule = "COCc1ccc(CC#N)cc1"
readout_type = "logP"
recorded_value = 1.23


-- ask // query logP value for entry `C=CCOCc1ccccc1`
-- reply 2.41

-- ask // query logP value for entry `Cc1ccc(CC#N)cc1`
-- reply 1.67

-- ask // query logP value for entry `COCc1ccc(COC)cc1`
-- reply 1.28

-- ask // query logP value for entry `CCOCc1ccccc1`
-- reply 2.16

-- ask // query logP value for entry `ClCc1ccc(Cl)cc1`
-- reply 3.18

-- ask // query logP value for entry `COCc1ccccc1`
-- reply 1.67
